Origin of the recorded values: patent US20250197372A1

# tested-target: rat maltase (partially purified alpha-glucosidase from intestinal rat powder)
# protocol-description: Intestinal alpha-glucosidase assay, maltose substrate (Glucose GO Kit)
test-readout: IC50 (nM)
Quick note: give the figure in nM, leave out the unit.

Record excerpt, results attached:
>>> df
                                 smiles_str  test_readout  uom  obs_value
0  [N-]=[N+]=Nc1ccc(NCCc2nccc(CCN3C[C@H](O)[C@@H](O)[C@H](O)[C@H]3CO)n2)c([N+](=O)[O-])c1          IC50   nM        164
1  CN(C)Cc1ccc(NCCCCCCN2C[C@H](O)[C@@H](O)[C@H](O)[C@H]2CO)c(C(F)(F)F)c1          IC50   nM         20
2  Cc1cc(NCc2cccc(CN3C[C@H](O)[C@@H](O)[C@H](O)[C@H]3CO)c2)cc(C2=COCCO2)c1          IC50   nM         73

**Query** Indicate the recorded IC50 value for this molecule: [N-]=[N+]=Nc1ccc(NCCc2cncc(CCN3C[C@H](O)[C@@H](O)[C@H](O)[C@H]3CO)n2)c([N+](=O)[O-])c1
**Result** 1200

**Query** Indicate the recorded IC50 value for this molecule: COc1cc(NCCCCCCN2C[C@H](O)[C@@H](O)[C@H](O)[C@H]2CO)cc(-c2ncccn2)c1
**Result** 11

----------
# tested-target: rat maltase (partially purified alpha-glucosidase from intestinal rat powder)
# protocol-description: Intestinal alpha-glucosidase assay, maltose substrate (Glucose GO Kit)
pIC50: −log10 of the molar value.
Tick class 1 if pIC50 is 8 or greater. Tick class 0 if pIC50 is less than 8.

Solved entries:
In [3]: df
Out[3]:
                                   compound                             tested_target    class
0  OC[C@@H]1[C@@H](O)[C@H](O)[C@@H](O)CN1CCCCCCCCC1CNCCO1 (stereo partly drawn)  rat maltase (partially purified alpha-glucosidase from intestinal rat powder)  class 1
1  [N-]=[N+]=Nc1ccc(NCCc2ccc(CCN3C[C@H](O)[C@@H](O)[C@H](O)[C@H]3CO)cc2)c([N+](=O)[O-])c1  rat maltase (partially purified alpha-glucosidase from intestinal rat powder)  class 0
2  COc1cc(NCCc2ccc(CCN3C[C@H](O)[C@@H](O)[C@H](O)[C@H]3CO)cc2)cc(-c2cccnn2)c1  rat maltase (partially purified alpha-glucosidase from intestinal rat powder)  class 0
3  COc1ccc(-c2ccc(CN3C[C@H](O)[C@@H](O)[C@H](O)[C@H]3CO)cc2)cc1  rat maltase (partially purified alpha-glucosidase from intestinal rat powder)  class 1
4  [N-]=[N+]=Nc1ccc(NCc2cccc(CN3C[C@H](O)[C@@H](O)[C@H](O)[C@H]3CO)c2)c([N+](=O)[O-])c1  rat maltase (partially purified alpha-glucosidase from intestinal rat powder)  class 1

**Query** Check the entry [N-]=[N+]=Nc1ccc(NCC/C=C/CCN2C[C@H](O)[C@@H](O)[C@H](O)[C@H]2CO)c([N+](=O)[O-])c1 : does pIC50 equal or exceed 8?
**Result** class 1

**Query** Check the entry [N-]=[N+]=Nc1ccc(NCCCCCCN2C[C@H](O)[C@@H](O)[C@H](O)[C@H]2CO)c(C(=O)O)c1 : does pIC50 equal or exceed 8?
**Result** class 0

**Query** Check the entry Cc1nc(=O)c2cc(-c3ncccn3)ccc2n1CCCCCCN1C[C@H](O)[C@@H](O)[C@H](O)[C@H]1CO : does pIC50 equal or exceed 8?
**Result** class 0

**Query** Check the entry COc1cc(NCCc2ccc(CCN3C[C@H](O)[C@@H](O)[C@H](O)[C@H]3CO)cc2)cc(-c2ccco2)c1 : does pIC50 equal or exceed 8?
**Result** class 0

**Query** Check the entry Nc1ccc(NCCCCCCCCN2C[C@H](O)[C@@H](O)[C@H](O)[C@H]2CO)c([N+](=O)[O-])c1Cl : does pIC50 equal or exceed 8?
**Result** class 0

**Query** Check the entry N#Cc1cc(NCc2cccc(CN3C[C@H](O)[C@@H](O)[C@H](O)[C@H]3CO)c2)cc(N2CCOCC2)c1 : does pIC50 equal or exceed 8?
**Result** class 0

**Query** Check the entry CS(C)=NS(=O)(=O)c1cc(-c2ncccn2)ccc1NCCCCCCN1C[C@H](O)[C@@H](O)[C@H](O)[C@H]1CO : does pIC50 equal or exceed 8?
**Result** class 0

**Query** Check the entry O=[N+]([O-])c1cc(C2=COCCO2)ccc1NCc1ccc(CN2C[C@H](O)[C@@H](O)[C@H](O)[C@H]2CO)cc1 : does pIC50 equal or exceed 8?
**Result** class 1

**Query** Check the entry COc1cc(NCCCCCCN2C[C@H](O)[C@@H](O)[C@H](O)[C@H]2CO)cc(C2CCCO2)c1 (stereo partly drawn) : does pIC50 equal or exceed 8?
**Result** class 0

**Query** Check the entry O=[N+]([O-])c1cc(-c2cccnn2)ccc1NCc1ccc(CN2C[C@H](O)[C@@H](O)[C@H](O)[C@H]2CO)cc1 : does pIC50 equal or exceed 8?
**Result** class 1

**Query** Check the entry N#Cc1cc(NCc2cccc(CN3C[C@H](O)[C@@H](O)[C@H](O)[C@H]3CO)c2)cc(C2=COCCO2)c1 : does pIC50 equal or exceed 8?
**Result** class 1

**Query** Check the entry N#Cc1cc(NCCCCCCN2C[C@H](O)[C@@H](O)[C@H](O)[C@H]2CO)cc(-c2ncccn2)c1 : does pIC50 equal or exceed 8?
**Result** class 1

**Query** Check the entry COc1cc(Br)cc(NCCn2cc(CCN3C[C@H](O)[C@@H](O)[C@H](O)[C@H]3CO)c3ccccc32)c1 : does pIC50 equal or exceed 8?
**Result** class 0

**Query** Check the entry OC[C@@H]1[C@@H](O)[C@H](O)[C@@H](O)CN1Cc1ccc(CNc2ccc(C3=COCCO3)cc2)cc1 : does pIC50 equal or exceed 8?
**Result** class 1

**Query** Check the entry [N-]=[N+]=Nc1ccc(NCc2cc(CCN3C[C@H](O)[C@@H](O)[C@H](O)[C@H]3CO)cs2)c([N+](=O)[O-])c1 : does pIC50 equal or exceed 8?
**Result** class 1

**Query** Check the entry CC#Cc1ccc(NCCCCCCN2C[C@H](O)[C@@H](O)[C@H](O)[C@H]2CO)c([N+](=O)[O-])c1 : does pIC50 equal or exceed 8?
**Result** class 1

**Query** Check the entry O=[N+]([O-])c1cc(-c2cccnn2)ccc1NCCc1ccc(CCN2C[C@H](O)[C@@H](O)[C@H](O)[C@H]2CO)cc1 : does pIC50 equal or exceed 8?
**Result** class 1

----------
# tested-target: recombinant alpha-glucosidase I (human full-length glucosidase I, Glu 1) (Homo sapiens, UniProt Q13724)
# Construct: 6-His (C); made in house; host or cells: HEK-293T cells transduced with BacMam virus (virus raised in Sf9)
# Sequence (Q13724 1-837): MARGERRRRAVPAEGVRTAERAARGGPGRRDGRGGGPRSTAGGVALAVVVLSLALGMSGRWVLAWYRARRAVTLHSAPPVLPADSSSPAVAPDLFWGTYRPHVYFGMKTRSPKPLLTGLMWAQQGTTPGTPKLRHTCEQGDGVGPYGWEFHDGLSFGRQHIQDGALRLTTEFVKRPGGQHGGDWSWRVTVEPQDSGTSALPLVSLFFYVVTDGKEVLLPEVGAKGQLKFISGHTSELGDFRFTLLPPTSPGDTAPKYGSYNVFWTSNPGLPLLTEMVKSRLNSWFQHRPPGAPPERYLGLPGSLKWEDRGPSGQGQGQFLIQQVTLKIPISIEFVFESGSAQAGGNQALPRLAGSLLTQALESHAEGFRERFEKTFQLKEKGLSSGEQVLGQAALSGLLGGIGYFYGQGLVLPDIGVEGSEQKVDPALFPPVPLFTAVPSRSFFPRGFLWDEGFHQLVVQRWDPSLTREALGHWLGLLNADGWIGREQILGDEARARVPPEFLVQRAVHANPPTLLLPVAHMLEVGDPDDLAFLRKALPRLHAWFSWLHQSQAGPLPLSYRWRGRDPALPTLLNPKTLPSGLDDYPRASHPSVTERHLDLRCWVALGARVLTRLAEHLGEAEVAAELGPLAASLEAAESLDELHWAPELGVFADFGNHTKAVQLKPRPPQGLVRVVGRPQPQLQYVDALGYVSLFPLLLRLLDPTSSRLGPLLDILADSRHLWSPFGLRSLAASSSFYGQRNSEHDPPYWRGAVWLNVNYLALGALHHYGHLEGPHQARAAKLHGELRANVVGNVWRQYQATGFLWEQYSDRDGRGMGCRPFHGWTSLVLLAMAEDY
# protocol-description: Alpha-glucosidase I assay (Amplex Red glucose detection, synthetic trisaccharide substrate)
# Assay type: biochemical
# recorded-conditions: Glucosidase 1; read-out: Glu 1 IC50
test-readout: pIC50
Expect pIC50 as a plain number equal to -log10 of the molar concentration.

Record excerpt, results attached:
>>> print(df.to_string())
                                 smiles_str  obs_value
0  OC[C@@H]1[C@@H](O)[C@H](O)[C@@H](O)CN1CCCCCCNc1cc(C2CC2)cc(N2CCOCC2)c1       6.66
1  OC[C@@H]1[C@@H](O)[C@H](O)[C@@H](O)CN1CCCCCCNc1cc(-c2ncccn2)cc(C(F)(F)F)c1       6.63
2  Cc1cc(NCc2ccc(CN3C[C@H](O)[C@@H](O)[C@H](O)[C@H]3CO)cc2)cc(-c2ccc[nH]2)c1       7.32
3  Cc1cc(-c2ncccn2)ccc1NCCCCCCN1C[C@H](O)[C@@H](O)[C@H](O)[C@H]1CO       6.91

**Query** Indicate the recorded pIC50 value for this compound: CCCc1nc(-c2cc(Cl)cc(NCCc3ccc(CCN4C[C@H](O)[C@@H](O)[C@H](O)[C@H]4CO)cc3)c2)no1
**Result** 5.87

**Query** Indicate the recorded pIC50 value for this compound: OC[C@@H]1[C@@H](O)[C@H](O)[C@@H](O)CN1CCc1ccc(CCNc2cc(Cl)cc(C3=CCOCC3)c2)cc1
**Result** 5.80

**Query** Indicate the recorded pIC50 value for this compound: COc1cc(NCCc2ccc(CCN3C[C@H](O)[C@@H](O)[C@H](O)[C@H]3CO)cc2)cc(-c2noc(C3CCC3)n2)c1
**Result** 5.95
